experiment: Inhibitory activity against 5-hydroxytryptamine receptor 1A using (+/-)-[3H]-8-hydroxydipropylaminotetralin; parameters: species or system Homo sapiens
pIC50: −log10 of the molar value.
measurementName: pIC50

Answered cases to consult:
COc1ccccc1CC1CCN([C@H]2CC[C@]3(CC2)OC(=O)c2c4c(ccc23)OCCO4)CC1
8.37
O=C1O[C@]2(CC[C@@H](N3CCC(Cc4ccccc4F)CC3)CC2)c2ccc3c(c21)OCO3
7.85
COc1ccc(Br)c(CC2CCN([C@H]3CC[C@]4(CC3)OC(=O)c3c5c(ccc34)OCO5)CC2)c1
8.62
O=C1O[C@]2(CC[C@@H](N3CCC(Cc4cc(F)ccc4F)CC3)CC2)c2ccc3c(c21)OCCO3
7.85

I = O=C1O[C@]2(CC[C@@H](N3CCC(Cc4cc(F)ccc4F)CC3)CC2)c2ccc3c(c21)OCO3
II = O=C1O[C@]2(CC[C@@H](N3CCN(Cc4ccccc4I)CC3)CC2)c2ccc3c(c21)OCCO3
III = Oc1nc2cc3c(cc2c2c1[C@@H](N1CCC(Cc4cc(F)ccc4F)CC1)CCC2)OCO3 (stereo in doubt; 4o)
IV = O=C1O[C@]2(CC[C@@H](N3CCC(Cc4ccccc4C(F)(F)F)CC3)CC2)c2ccc3c(c21)OCO3
(Q) # sort list by recorded pIC50, greatest to least Quick reminder: the answer is the labels in the order asked.
(A) II, I, IV, III

====

assay: Inhibitory activity against 5-hydroxytryptamine receptor 1A using (+/-)-[3H]-8-hydroxydipropylaminotetralin; parameters: species or system Homo sapiens
measurementName: IC50 (µM)

O=C1O[C@]2(CC[C@@H](N3CCC(Cc4ccccc4Cl)CC3)CC2)c2ccc3c(c21)OCCO3
0.019
COc1ccc(F)c(CC2CCN([C@H]3CC[C@]4(CC3)OC(=O)c3c5c(ccc34)OCCO5)CC2)c1
0.011
O=C1O[C@]2(CC[C@@H](N3CCC(Cc4cc(F)ccc4Br)CC3)CC2)c2ccc3c(c21)OCO3
0.014
O=C1O[C@]2(CC[C@@H](N3CCN(Cc4ccccc4I)CC3)CC2)c2ccc3c(c21)OCO3
0.0096
O=C1O[C@]2(CC[C@@H](N3CCC(Cc4ccccc4Br)CC3)CC2)c2ccc3c(c21)OCO3
0.0096

P = O=C1O[C@]2(CC[C@@H](N3CCC(Cc4ccccc4C(F)(F)F)CC3)CC2)c2ccc3c(c21)OCCO3
Q = O=C1O[C@]2(CC[C@@H](N3CCC(Cc4cc(Cl)ccc4Cl)CC3)CC2)c2ccc3c(c21)OCO3
(Q) Lab notebook, comparison: P versus Q , higher IC50 goes to which? Return value: the label identifying the chosen record.
(A) P

====

target: Sodium-dependent serotonin transporter (Homo sapiens); assay: Inhibitory activity against human- serotonin reuptake transmitter using [3H]-citalopram as a radioligand
Sequence (P31645 whole entry): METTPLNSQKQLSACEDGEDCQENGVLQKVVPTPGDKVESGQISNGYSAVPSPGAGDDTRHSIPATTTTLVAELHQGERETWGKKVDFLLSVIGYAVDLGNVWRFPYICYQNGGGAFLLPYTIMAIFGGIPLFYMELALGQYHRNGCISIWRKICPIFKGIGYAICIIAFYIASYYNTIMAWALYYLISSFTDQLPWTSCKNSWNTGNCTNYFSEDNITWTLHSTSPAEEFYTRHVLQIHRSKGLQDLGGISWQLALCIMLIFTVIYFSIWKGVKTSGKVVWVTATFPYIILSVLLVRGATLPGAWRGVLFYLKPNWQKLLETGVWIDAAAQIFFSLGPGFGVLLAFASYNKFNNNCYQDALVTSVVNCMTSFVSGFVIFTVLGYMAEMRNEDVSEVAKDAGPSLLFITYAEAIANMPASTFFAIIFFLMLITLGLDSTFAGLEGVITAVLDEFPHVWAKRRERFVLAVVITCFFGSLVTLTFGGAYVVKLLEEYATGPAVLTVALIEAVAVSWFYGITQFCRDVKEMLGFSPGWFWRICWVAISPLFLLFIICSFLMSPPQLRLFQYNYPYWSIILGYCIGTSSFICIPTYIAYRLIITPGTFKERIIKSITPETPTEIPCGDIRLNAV
pIC50: −log10 of the molar value.
measurementName: pIC50

Answered cases to consult:
O=C1O[C@]2(CC[C@@H](N3CCC(Cc4cc(F)ccc4Br)CC3)CC2)c2ccc3c(c21)OCCO3
7.11
COc1ccccc1CC1CCN([C@H]2CC[C@]3(CC2)OC(=O)c2c4c(ccc23)OCCO4)CC1
7.23

I = Oc1nc2cc3c(cc2c2c1[C@@H](N1CCN(Cc4ccccc4I)CC1)CCC2)OCO3
II = O=C1O[C@]2(CC[C@@H](N3CCC(Cc4ccccc4C(F)(F)F)CC3)CC2)c2ccc3c(c21)OCCO3
(Q) Lab notebook, comparison: I versus II , higher pIC50 goes to which? Return value: the label identifying the chosen record.
(A) I
